TARGET: DNA-dependent protein kinase catalytic subunit (Homo sapiens)
Sequence (P78527 whole entry): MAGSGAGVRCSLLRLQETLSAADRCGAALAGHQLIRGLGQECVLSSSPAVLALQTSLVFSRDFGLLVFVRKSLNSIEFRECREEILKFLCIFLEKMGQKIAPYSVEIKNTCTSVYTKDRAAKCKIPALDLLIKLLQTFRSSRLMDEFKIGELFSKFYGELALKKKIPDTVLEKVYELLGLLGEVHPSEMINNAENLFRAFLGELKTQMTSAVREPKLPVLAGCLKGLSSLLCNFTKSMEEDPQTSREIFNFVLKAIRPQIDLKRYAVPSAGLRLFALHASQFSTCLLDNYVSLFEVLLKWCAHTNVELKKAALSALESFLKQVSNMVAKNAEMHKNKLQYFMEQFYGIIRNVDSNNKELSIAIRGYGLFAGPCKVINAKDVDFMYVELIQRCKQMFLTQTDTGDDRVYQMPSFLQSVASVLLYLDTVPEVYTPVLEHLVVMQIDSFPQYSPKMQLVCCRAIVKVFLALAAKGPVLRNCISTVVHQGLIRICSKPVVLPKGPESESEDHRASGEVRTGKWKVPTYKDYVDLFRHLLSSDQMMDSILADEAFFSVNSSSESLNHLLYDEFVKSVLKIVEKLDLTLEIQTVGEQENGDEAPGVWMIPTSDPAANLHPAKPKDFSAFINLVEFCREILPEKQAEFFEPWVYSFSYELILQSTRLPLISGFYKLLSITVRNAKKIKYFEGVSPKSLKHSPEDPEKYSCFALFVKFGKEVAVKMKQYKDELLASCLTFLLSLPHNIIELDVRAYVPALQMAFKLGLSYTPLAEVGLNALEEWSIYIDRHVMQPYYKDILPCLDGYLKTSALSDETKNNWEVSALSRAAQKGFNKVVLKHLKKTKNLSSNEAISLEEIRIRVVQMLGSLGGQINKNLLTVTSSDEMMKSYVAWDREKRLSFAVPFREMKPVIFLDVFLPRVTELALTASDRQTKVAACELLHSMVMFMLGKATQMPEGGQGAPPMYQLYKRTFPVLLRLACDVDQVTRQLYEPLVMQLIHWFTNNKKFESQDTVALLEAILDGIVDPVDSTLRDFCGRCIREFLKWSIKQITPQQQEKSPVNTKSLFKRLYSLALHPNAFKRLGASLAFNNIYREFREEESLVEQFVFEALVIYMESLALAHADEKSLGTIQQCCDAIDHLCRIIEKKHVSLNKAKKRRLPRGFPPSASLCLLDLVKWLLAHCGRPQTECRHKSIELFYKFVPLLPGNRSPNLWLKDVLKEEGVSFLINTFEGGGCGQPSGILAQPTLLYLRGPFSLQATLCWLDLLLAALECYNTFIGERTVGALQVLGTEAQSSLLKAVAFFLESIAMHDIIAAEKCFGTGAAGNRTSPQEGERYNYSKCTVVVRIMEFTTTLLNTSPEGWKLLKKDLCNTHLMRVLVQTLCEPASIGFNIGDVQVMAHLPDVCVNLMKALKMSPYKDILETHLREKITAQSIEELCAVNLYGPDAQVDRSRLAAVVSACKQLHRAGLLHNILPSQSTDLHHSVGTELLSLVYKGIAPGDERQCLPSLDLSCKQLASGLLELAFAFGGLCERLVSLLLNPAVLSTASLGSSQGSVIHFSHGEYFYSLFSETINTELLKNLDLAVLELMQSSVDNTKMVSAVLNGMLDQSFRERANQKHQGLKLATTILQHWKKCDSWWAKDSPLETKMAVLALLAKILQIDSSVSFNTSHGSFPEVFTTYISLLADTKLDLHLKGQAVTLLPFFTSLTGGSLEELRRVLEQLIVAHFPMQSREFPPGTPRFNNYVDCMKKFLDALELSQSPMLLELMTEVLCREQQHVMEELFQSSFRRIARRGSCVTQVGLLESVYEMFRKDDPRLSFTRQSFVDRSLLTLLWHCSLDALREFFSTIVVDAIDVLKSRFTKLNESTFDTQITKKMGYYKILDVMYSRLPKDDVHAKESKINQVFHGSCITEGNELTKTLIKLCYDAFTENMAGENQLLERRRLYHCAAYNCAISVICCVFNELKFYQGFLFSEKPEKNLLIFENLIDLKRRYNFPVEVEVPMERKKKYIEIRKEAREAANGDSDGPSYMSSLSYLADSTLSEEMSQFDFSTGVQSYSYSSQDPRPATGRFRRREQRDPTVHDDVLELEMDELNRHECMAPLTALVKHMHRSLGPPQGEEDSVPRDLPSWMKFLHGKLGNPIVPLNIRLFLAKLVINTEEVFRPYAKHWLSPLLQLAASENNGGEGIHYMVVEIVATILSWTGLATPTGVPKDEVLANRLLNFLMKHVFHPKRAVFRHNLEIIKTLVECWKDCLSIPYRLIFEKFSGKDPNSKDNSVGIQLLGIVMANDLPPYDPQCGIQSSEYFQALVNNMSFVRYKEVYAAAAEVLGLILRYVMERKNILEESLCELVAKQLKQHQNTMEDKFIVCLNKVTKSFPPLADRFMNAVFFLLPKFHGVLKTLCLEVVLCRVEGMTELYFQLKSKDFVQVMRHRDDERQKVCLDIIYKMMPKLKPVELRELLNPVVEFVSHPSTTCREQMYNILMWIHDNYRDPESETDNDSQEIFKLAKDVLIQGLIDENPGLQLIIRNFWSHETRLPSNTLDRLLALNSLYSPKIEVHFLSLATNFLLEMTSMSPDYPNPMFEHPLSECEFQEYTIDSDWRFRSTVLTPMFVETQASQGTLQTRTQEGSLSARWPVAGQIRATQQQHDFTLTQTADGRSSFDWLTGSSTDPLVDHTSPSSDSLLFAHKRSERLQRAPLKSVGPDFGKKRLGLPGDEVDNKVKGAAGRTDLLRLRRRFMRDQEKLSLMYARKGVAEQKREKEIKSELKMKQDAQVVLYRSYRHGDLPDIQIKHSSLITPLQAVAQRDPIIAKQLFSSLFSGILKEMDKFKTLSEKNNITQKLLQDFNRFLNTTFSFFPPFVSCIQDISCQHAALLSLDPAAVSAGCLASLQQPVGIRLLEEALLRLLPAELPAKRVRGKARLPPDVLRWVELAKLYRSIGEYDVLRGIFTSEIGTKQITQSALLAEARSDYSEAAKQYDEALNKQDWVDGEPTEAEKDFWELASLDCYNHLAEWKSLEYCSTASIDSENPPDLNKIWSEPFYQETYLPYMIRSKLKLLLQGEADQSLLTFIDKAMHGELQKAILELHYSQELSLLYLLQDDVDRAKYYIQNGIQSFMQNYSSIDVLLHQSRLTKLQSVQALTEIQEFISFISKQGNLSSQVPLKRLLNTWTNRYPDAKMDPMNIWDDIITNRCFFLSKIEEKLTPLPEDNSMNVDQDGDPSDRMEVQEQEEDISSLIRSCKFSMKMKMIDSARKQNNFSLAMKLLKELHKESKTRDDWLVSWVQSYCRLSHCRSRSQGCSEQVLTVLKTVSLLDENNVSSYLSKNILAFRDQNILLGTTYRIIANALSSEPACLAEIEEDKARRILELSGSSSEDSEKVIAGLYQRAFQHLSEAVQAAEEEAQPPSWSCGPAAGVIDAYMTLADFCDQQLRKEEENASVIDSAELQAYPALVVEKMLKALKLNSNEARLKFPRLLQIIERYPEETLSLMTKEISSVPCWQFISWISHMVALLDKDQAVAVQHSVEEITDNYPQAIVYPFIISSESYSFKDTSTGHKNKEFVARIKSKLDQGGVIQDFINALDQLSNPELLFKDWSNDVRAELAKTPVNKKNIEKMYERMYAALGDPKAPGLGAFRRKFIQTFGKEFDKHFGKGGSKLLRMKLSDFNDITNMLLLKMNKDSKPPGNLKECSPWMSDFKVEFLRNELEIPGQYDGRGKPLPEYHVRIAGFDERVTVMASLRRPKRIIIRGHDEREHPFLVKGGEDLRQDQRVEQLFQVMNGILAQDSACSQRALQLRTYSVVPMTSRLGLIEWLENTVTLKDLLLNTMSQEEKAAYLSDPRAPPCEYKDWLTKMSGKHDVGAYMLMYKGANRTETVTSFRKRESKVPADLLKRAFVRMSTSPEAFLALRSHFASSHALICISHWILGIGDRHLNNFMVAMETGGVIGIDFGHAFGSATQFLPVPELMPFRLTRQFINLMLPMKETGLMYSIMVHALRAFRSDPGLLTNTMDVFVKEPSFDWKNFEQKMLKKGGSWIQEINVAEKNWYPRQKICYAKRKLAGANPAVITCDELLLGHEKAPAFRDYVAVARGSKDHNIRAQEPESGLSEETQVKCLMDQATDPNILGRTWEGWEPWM
PROTOCOL SUMMARY: Inhibition of DNA-dependent protein kinase (unknown origin)
REPORTED PROPERTY: IC50

input: Entry Cc1nc(-c2cn3c(n2)-c2ccc(-c4cnn(C(C)(C)C(N)=O)c4)cc2OCC3)n(C(C)C)n1 has what IC50?
output: > 4.8 µM

---

PROTOCOL SUMMARY: Oral bioavailability in mouse
Format: ADME, organism-based
CONDITION INFO: in vivo
REPORTED PROPERTY: bioavailability (%)
Report only the number, with the unit % understood.

input: Entry Cc1nc(-c2cn3c(n2)-c2ccc(-c4cnn(C(C)(C)C(N)=O)c4)cc2OCC3)n(C(C)C)n1 has what bioavailability?
output: 100

---

PROTOCOL SUMMARY: AUCtotal in nude mouse at 100 mg/kg, po
Assay type: ADME, organism-based
Set-up: time AUCmax, dose 100 mg/kg, route oral
CONDITION INFO: plasma
REPORTED PROPERTY: AUC (µM·h)
Report only the number, with the unit µM·h understood.

> print(dat)
                              sample.smiles  reported.property  measured.result
1  CC(C)n1ncnc1-c1nc2c(s1)CCOc1cc(-c3cnn(CCO)c3)ccc1-2                AUC              275

Attention now turns to another entry.
input: Entry CS(=O)(=O)N1CCN(Cc2cc3nc(-c4cccc5[nH]ncc45)nc(N4CCOCC4)c3s2)CC1 has what AUC?
output: 80.3

---

PROTOCOL SUMMARY: cells
CONDITION INFO: Homo sapiens
Description: Cytotoxicity against human MCF7-neo/Her2 cells after 3 to 4 days by CellTitre-Glo assay
REPORTED PROPERTY: pIC50
FYI, pIC50 means -log10 of a concentration in mol per litre.

> print(dat)
                              sample.smiles  reported.property  measured.result
1  CC(C)n1ncnc1-c1cn2c(n1)-c1ccc(-c3cn[nH]c3)cc1OCC2              pIC50             6.66
2  Cc1nc(-c2cn3c(n2)-c2ccc(-c4cnn(C(C)(C)C(N)=O)c4)cc2OCC3)n(C(C)C)n1              pIC50             7.60

Attention now turns to another entry.
input: Entry Cc1nc(-c2cn3c(n2)-c2ccc(-c4cnn(C5CN(CCO)C5)c4)cc2OCC3)n(C(C)C)n1 has what pIC50?
output: 6.92

---

System: Mus musculus
PROTOCOL SUMMARY: Unbound AUC in nude mouse at 1 mg/kg, iv and 25 mg/kg, po
Assay type: ADME, organism-based
CONDITION INFO: in vivo
REPORTED PROPERTY: fAUC
Be sure to follow the number with its unit.

input: Entry CC(C)n1ncnc1-c1cn2c(n1)-c1ccc(-c3cnn(CC(C)(C)O)c3)cc1OCC2 has what fAUC?
output: 2.7 µM·h

---

Quick reference: pIC50 of the listed items.
PROTOCOL SUMMARY: cells
CONDITION INFO: Homo sapiens
FYI, pIC50 means -log10 of a concentration in mol per litre.

> print(dat)
                              sample.smiles  reported.property  measured.result
1  CC(C)n1ncnc1-c1nc2c(s1)CCOc1cc(-c3cnn(CCO)c3)ccc1-2              pIC50             6.71
2  CC(C)n1ncnc1-c1cn2c(n1)-c1ccc(-c3cnn(CCO)c3)cc1OCC2              pIC50             7.04
3  Cc1nc(-c2cn3c(n2)-c2ccc(-c4cnn(CCO)c4)cc2OCC3)n(C)n1              pIC50             5.85

input: Entry Cc1nc(-c2cn3c(n2)-c2ccc(-c4cnn(C5CN(C(=O)[C@H](C)O)C5)c4)cc2OCC3)n(C(C)C)n1 has what pIC50?
output: 6.99

---

Test system: PC-3
PROTOCOL SUMMARY: Cytotoxicity against human PC3 cells
Type: functional, cell-based
REPORTED PROPERTY: EC50 (nM)
Report only the number, with the unit nM understood.

input: Entry Cc1nc(-c2cn3c(n2)-c2ccc(-c4cnn(C(C)(C)C(N)=O)c4)cc2OCC3)n(C(C)C)n1 [TASELISIB] has what EC50?
output: 571

---

TARGET: Phosphatidylinositol 3-kinase catalytic subunit type 3 (Homo sapiens, UniProt Q8NEB9)
Sequence (Q8NEB9 whole entry): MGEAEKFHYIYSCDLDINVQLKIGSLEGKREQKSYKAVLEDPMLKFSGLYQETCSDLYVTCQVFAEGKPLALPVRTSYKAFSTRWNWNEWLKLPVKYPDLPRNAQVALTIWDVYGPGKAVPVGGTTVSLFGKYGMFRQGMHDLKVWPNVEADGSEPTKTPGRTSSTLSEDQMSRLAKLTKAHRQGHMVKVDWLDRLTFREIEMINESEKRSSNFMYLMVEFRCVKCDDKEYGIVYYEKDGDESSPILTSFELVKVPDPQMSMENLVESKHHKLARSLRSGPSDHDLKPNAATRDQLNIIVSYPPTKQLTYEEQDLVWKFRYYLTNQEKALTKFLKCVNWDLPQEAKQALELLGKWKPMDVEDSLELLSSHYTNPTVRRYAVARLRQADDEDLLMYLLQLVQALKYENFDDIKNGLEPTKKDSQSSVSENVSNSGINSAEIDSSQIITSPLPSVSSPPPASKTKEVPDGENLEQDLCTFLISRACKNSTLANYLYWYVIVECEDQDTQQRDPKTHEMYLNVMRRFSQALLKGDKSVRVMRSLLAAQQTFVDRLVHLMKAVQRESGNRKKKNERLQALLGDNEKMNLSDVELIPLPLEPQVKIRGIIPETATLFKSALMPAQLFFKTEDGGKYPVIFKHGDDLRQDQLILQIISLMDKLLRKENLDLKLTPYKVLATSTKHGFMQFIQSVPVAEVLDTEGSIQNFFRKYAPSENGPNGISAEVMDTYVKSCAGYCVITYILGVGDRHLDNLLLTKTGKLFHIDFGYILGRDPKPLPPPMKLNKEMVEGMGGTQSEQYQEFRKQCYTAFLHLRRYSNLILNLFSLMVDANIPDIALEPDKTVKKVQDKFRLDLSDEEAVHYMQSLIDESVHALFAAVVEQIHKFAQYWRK
PROTOCOL SUMMARY: Inhibition of human VPS34
REPORTED PROPERTY: pIC50
FYI, pIC50 means -log10 of a concentration in mol per litre.

input: Entry Cc1nc(-c2cn3c(n2)-c2ccc(-c4cnn(C(C)(C)C(N)=O)c4)cc2OCC3)n(C(C)C)n1 has what pIC50?
output: 6.43

---

PROTOCOL SUMMARY: Kinetic solubility of the compound
Assay type: physicochemical
CONDITION INFO: read-out: Kinetic_solubility
Quick reference: solubility kinetic of the listed items.

// below: answered compounds
> print(dat)
                              sample.smiles  measured.result
1  Cc1nc(-c2cn3c(n2)-c2ccc(-c4cnn(C(C)(C)C(N)=O)c4)cc2OCC3)n(C(C)C)n1          33.1 µM
2  OCCn1cc(-c2ccc3c(c2)OCCn2cc(-c4ncnn4CC(F)(F)F)nc2-3)cn1           7.6 µM
3  Cc1nc(-c2cn3c(n2)-c2ccc(-c4cnn(C5CN(C(=O)[C@H](C)O)C5)c4)cc2OCC3)n(C(C)C)n1          78.2 µM
4  Cc1nc(-c2cn3c(n2)-c2ccc(-c4cnn(CCO)c4)cc2OCC3)n(C)n1           2.4 µM

input: Entry CC(C)n1ncnc1-c1cn2c(n1)-c1ccc(-c3cnn(CC(C)(C)O)c3)cc1OCC2 has what solubility kinetic?
output: 12.4 µM

input: And Cc1n[nH]c(-c2cn3c(n2)-c2ccc(-c4cnn(CCO)c4)cc2OCC3)n1 ?
output: 95.8 µM

input: And CC(C)n1ncnc1-c1cn2c(n1)-c1ccc(-c3cn[nH]c3)cc1OCC2 ?
output: < 1 µM

input: And CC(C)n1ncnc1-c1cn2c(n1)-c1ccc(-c3cnn(CCO)c3)cc1OCC2 ?
output: 5.1 µM

input: And Cc1nc(-c2cn3c(n2)-c2ccc(-c4cnn(C5CN(CCO)C5)c4)cc2OCC3)n(C(C)C)n1 ?
output: 109 µM

input: And Cc1nc(-c2cn3c(n2)-c2ccc(-c4cnn(C)c4)cc2OCC3)n(C(C)C)n1 ?
output: 2 µM

input: And Cc1nc(-c2cn3c(n2)-c2ccc(-c4cnn(CCN5CCOCC5)c4)cc2OCC3)n(C(C)C)n1 ?
output: 52.3 µM

---

PROTOCOL SUMMARY: Plasma protein binding in human
Assay type: ADME, cell-free
CONDITION INFO: read-out: PPB (converted)
REPORTED PROPERTY: fraction unbound

input: Entry Cc1nc(-c2cn3c(n2)-c2ccc(-c4cnn(C(C)(C)C(N)=O)c4)cc2OCC3)n(C(C)C)n1 [TASELISIB] has what fraction unbound?
output: 0.24

---

Tested on: Mus musculus
PROTOCOL SUMMARY: Unbound clearance in nude mouse at 1 mg/kg, iv and 25 mg/kg, po
Format: ADME, organism-based
CONDITION INFO: in vivo
Quick reference: CL free of the listed items.
Report only the number, with the unit mL/min/kg understood.

> print(dat)
                              sample.smiles  readout.units  measured.result
1  CC(C)n1ncnc1-c1nc2c(s1)CCOc1cc(-c3cnn(CCO)c3)ccc1-2      mL/min/kg             4750
2  CC(C)n1ncnc1-c1cn2c(n1)-c1ccc(-c3cnn(CC(C)(C)O)c3)cc1OCC2      mL/min/kg              282
3  Cc1nc(-c2cn3c(n2)-c2ccc(-c4cnn(C(C)(C)C(N)=O)c4)cc2OCC3)n(C(C)C)n1      mL/min/kg               25

Attention now turns to another entry.
input: Entry Cc1nc(-c2cn3c(n2)-c2ccc(-c4cnn(CCO)c4)cc2OCC3)n(C(C)C)n1 has what CL free?
output: 83

---

TARGET: Serine/threonine-protein kinase mTOR (Homo sapiens, UniProt P42345)
REPORTED PROPERTY: Ki (nM)
Report only the number, with the unit nM understood.

input: Entry Cc1nc(-c2cn3c(n2)-c2ccc(-c4cnn(C(C)(C)C(N)=O)c4)cc2OCC3)n(C(C)C)n1 has what Ki?
output: 1200

---

PROTOCOL SUMMARY: Oral bioavailability in Sprague-Dawley rat
Assay type: ADME, organism-based
CONDITION INFO: in vivo
REPORTED PROPERTY: bioavailability (%)
Report only the number, with the unit % understood.

input: Entry Cc1nc(-c2cn3c(n2)-c2ccc(-c4cnn(C(C)(C)C(N)=O)c4)cc2OCC3)n(C(C)C)n1 has what bioavailability?
output: 99
